# Organism: Rattus norvegicus
# experiment: The distribution of the 131 I-labeled compound at 5 min was evaluated in rat kidney as Percent of injected dose per gram in the organ
# Format: ADME, organism-based
# details: in vivo
Kindly supply the reported Dose values for the records listed here.
Answers are plain numbers, in %.

Illustrative cases are given below, each with its answer.
Looking up COc1cc(CC(C)NN)c(OC)cc1I (centres undefined) , I found its Dose recorded as 1.2

Looking up COc1cc(CC(C)NCCCN(C)C)c(OC)cc1I (centres undefined) , I found its Dose recorded as 2

Dear colleague, could you send me Dose for each of the items below? Thanks.
1. COc1cc(CC(C)N)c(OC)cc1I (centres undefined)
2. COc1cc(CC(C)N(C)C(C)C)c(OC)cc1I (centres undefined)

Reply:
1. 1.2
2. 0.53

Dear colleague, could you send me Dose for each of the items below? Thanks.
1. COc1cc(CC(C)NCC2CC2)c(OC)cc1I (centres undefined)
2. COc1cc(CC(C)N(C)Cc2ccccc2)c(OC)cc1I (centres undefined)
3. COc1cc(CC(C)N(C)C)c(OC)cc1I (centres undefined)
4. COc1cc(CC(C)NCC#N)c(OC)cc1I (centres undefined)
5. CCN(CC)C(C)Cc1cc(OC)c(I)cc1OC (centres undefined)

Reply:
1. 1.1
2. 0.63
3. 2.4
4. 1.5
5. 0.69
